meta.source: patent US9730940B2

target: PI3K-alpha (Homo sapiens (Human), UniProt P42336); experiment: HTRF PI3K biochemical assay, alpha isoform; details: ratio PI3K-alpha IC50 value/PI3K-delta IC50 value
Sequence (P42336 whole entry, looked up, canonical isoform): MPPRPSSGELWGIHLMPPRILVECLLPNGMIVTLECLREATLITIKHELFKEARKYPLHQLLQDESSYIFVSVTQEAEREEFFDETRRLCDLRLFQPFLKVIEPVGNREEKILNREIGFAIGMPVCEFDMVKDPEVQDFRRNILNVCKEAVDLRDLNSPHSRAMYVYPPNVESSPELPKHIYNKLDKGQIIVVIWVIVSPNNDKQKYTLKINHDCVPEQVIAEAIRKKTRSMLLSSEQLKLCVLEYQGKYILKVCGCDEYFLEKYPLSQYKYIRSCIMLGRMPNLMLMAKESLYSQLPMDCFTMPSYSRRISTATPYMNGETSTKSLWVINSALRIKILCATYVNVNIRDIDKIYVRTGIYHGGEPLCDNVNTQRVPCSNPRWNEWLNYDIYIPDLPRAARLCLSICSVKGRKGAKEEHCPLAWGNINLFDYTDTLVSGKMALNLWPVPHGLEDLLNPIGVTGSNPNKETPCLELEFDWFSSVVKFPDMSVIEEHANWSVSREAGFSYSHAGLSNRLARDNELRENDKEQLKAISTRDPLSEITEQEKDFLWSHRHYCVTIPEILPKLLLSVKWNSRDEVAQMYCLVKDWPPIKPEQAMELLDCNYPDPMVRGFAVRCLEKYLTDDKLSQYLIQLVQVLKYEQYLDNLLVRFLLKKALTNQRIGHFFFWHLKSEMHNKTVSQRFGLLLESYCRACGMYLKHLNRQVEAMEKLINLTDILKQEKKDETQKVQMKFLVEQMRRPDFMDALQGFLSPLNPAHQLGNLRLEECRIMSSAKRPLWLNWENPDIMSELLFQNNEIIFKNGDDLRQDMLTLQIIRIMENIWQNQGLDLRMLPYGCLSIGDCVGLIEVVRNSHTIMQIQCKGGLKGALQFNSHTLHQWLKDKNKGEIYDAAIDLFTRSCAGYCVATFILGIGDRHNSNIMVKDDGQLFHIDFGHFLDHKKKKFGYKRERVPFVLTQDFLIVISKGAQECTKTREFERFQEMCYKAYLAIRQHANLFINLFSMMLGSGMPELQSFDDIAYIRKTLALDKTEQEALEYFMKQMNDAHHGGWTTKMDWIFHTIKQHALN
Sequence (P27986 whole entry partner, looked up, canonical isoform): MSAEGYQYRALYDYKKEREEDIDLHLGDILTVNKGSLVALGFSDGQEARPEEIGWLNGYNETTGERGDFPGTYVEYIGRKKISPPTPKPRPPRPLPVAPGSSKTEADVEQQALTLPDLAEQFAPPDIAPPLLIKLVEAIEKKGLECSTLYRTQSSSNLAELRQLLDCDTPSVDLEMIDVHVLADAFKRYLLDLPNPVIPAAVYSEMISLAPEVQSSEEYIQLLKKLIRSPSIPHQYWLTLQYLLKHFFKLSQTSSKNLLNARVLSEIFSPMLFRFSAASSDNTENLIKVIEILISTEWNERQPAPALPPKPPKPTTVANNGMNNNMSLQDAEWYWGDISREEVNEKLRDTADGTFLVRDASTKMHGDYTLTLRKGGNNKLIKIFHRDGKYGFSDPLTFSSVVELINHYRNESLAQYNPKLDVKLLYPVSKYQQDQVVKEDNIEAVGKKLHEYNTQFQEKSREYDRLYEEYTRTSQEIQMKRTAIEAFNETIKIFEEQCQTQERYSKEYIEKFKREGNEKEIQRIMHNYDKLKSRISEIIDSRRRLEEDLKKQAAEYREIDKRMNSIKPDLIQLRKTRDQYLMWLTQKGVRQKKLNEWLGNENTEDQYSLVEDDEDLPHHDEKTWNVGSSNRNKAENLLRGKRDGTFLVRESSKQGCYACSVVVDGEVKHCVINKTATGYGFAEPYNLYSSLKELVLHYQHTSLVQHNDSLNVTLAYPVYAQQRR
Provide the reported Relative Selectivity versus PI3Kalpha of each item.

Write down the reported Relative Selectivity versus PI3Kalpha of CCn1c(N(C)CC(C)C)nc2c(O[C@H]3CCN(C(=O)OC(C)(C)C)C3)ncnc21 [Compound 13-1] , test system: PI3K-alpha (Homo sapiens (Human), UniProt P42336).
>10

CCC(=O)N1CC[C@H](Oc2ncnc3c2nc(Oc2cccc(C)c2C)n3C)C1 [Compound 12-1] ?
4

CCC(=O)N1CC[C@H](Oc2ncnc3c2nc(-c2cnc(OC)c(C)c2)n3C)C1 [Compound 2-94] ?
>10

CCNC(=O)c1nc2c(O[C@H]3CCN(C(=O)OC(C)(C)C)C3)ncnc2n1CC [Compound 15-5] ?
>10

CCn1c(-c2cnc(C)nc2)nc2c(O[C@H]3CCN(C(=O)C4CCOCC4)C3)ncnc21 [Compound 2-26] ?
>10

CCC(=O)N1CC[C@H](Oc2ncnc3c2nc(-c2ccc4cc[nH]c4c2)n3C)C1 [Compound 3-4] ?
>10

CCn1ncc(-c2nc3c(O[C@H]4CCN(C(=O)c5ccncc5)C4)ncnc3n2C)c1C [Compound 2-64] ?
>10

CCn1ncc(-c2nc3c(O[C@H]4CCN(C(=O)c5nnc(C)o5)C4)ncnc3n2C)c1C [Compound 2-81] ?
5

CCn1c(-c2cnc(C)nc2)nc2c(O[C@H]3CCN(C(=O)N4CC(F)(F)C4)C3)ncnc21 [Compound 5-14] ?
>10

CCn1c(-c2cnc(C)nc2)nc2c(O[C@H]3CCN(C(=O)[C@H]4C[C@H]5CC[C@@H]4C5)C3)ncnc21 [Compound 2-110] ?
>10

CCn1ncc(-c2nc3c(S[C@H]4CCN(c5ncnc6sccc56)C4)ncnc3n2C)c1C [Compound 10-13] ?
>10

CCn1c(-c2cnc(C)nc2)nc2c(O[C@H]3CCN(c4cccnc4)C3)ncnc21 [Compound 7-24] ?
>10

CCn1c(-c2cnc(OC)c(C)c2)nc2c(O[C@H]3CCN(C(=O)C4CC4)C3)ncnc21 [Compound 3-49] ?
>10

CCn1c(-c2cnc(OC)nc2)nc2c(O[C@H]3CCN(C(=O)C4CC4)C3)ncnc21 [Compound 3-27] ?
>10

CCC(=O)N1CC[C@H](Oc2ncnc3c2nc(-c2ccc(C(F)(F)F)nc2)n3C)C1 [Compound 3-2] ?
>10

CCn1ncc(-c2nc3c(O[C@H]4CCN(C(=O)CC#N)C4)ncnc3n2C)c1C [Compound 2-15] ?
>10

----------
molecular target: PI3K-alpha (Homo sapiens (Human)); assay: HTRF PI3K biochemical assay, alpha isoform; conditions: ratio PI3K-alpha IC50 value/PI3K-delta IC50 value
READOUT: Relative Selectivity versus PI3Kalpha

So what's the measured Relative Selectivity versus PI3Kalpha for this one? CCn1c(-c2cnc(C)nc2)nc2c(O[C@H]3CCN(C(=O)C4CC4CO)C3)ncnc21 (single isomer, unassigned) [Compound 2-130]
>10

CCC(=O)N1CC[C@H](Oc2ncnc3c2nc(-c2cnc4[nH]nc(C)c4c2)n3C)C1 ?
>10

CCC(=O)N1CC[C@H](Oc2ncnc3c2nc(-c2cnc(C)nc2)n3C)C1 ?
>10

CCC(=O)N1CC[C@H](Oc2ncnc3c2nc(-c2cc(O)cc(F)c2)n3C)C1 ?
>10

CCn1ncc(-c2nc3c(O[C@H]4CCN(C(=O)C5CCOCC5)C4)ncnc3n2C)c1C ?
>10

CCn1ncc(-c2nc3c(O[C@H]4CCN(C(=O)c5nccn5C)C4)ncnc3n2C)c1C ?
>10

CCn1ncc(-c2nc3c(OC4CCN(C(=O)COC)C4)ncnc3n2C)c1C (centres unmarked) ?
>10

CCn1ncc(-c2nc3c(O[C@H]4CCN(C(=O)c5cccnc5)C4)ncnc3n2C)c1C ?
>10

----------
molecular target: PI3K-alpha (Homo sapiens (Human), UniProt P42336); experiment: HTRF PI3K biochemical assay, alpha isoform; details: ratio PI3K-alpha IC50 value/PI3K-delta IC50 value
READOUT: Relative Selectivity versus PI3Kalpha

So what's the measured Relative Selectivity versus PI3Kalpha for this one? CCn1ncc(-c2nc3c(O[C@H]4CCN(c5nccc6sccc56)C4)ncnc3n2C)c1C [Compound 7-3]
>10

CCC(=O)N1CC[C@H](S(=O)(=O)c2ncnc3c2nc(-c2cnn(CC)c2C)n3C)C1 [Compound 10-6] ?
5

CCn1ncc(-c2nc3c(O[C@H]4CCN(c5ncccn5)C4)ncnc3n2C)c1C [Compound 7-1] ?
>10

CCC(=O)N1CC[C@H](Oc2ncnc3c2nc(C2=CCOCC2)n3CC)C1 [Compound 14-1] ?
>10
